# system-name: Cathepsin D (CatD) (Homo sapiens (Human), UniProt P07339)
# Sequence (P07339 65-412, species assumed): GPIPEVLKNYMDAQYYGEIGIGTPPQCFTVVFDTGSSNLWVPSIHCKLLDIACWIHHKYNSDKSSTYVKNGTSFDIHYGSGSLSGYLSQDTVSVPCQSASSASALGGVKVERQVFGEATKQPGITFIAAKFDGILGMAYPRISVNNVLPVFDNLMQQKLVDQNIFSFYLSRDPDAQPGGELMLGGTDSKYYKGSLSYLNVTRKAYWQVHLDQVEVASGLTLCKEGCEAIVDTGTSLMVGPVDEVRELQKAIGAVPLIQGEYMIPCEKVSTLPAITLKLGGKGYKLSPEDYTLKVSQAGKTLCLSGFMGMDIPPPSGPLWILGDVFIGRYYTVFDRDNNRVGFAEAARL
pIC50: −log10 of the molar value.
Decide using pIC50: a value greater than or equal to 4 is fulfilled, a smaller one is not fulfilled.

Example entries begin here.
Cc1nc(COc2cnc(/C(F)=C/c3cc(F)c(F)c([C@]4(C)CS(=O)(=O)N(C)C(N)=N4)c3)cn2)no1 [Example 229]: fulfilled
CC1(C)C(N)=N[C@](C)(c2cc(/C=C(\F)c3cc4c(cn3)OCCO4)ccc2F)[C@H](F)S1(=O)=O (single isomer, unassigned) [Example 214]: not fulfilled
CN1C(N)=N[C@](C)(c2cc(/C=C(\F)c3cc(F)c(C#N)cn3)ccc2F)CS1(=O)=O [Example 226]: fulfilled

Now look at this entry.
query: Check this compound for pIC50 at or above 4: CN1C(N)=N[C@](C)(c2cc(/C=C(\F)c3nc(C#N)cs3)ccc2F)CS1(=O)=O [Example 267]
result: fulfilled

---

# system-name: human recombinant BACE2 (Homo sapiens (Human), UniProt Q9Y5Z0)
# Sequence (Q9Y5Z0 63-518): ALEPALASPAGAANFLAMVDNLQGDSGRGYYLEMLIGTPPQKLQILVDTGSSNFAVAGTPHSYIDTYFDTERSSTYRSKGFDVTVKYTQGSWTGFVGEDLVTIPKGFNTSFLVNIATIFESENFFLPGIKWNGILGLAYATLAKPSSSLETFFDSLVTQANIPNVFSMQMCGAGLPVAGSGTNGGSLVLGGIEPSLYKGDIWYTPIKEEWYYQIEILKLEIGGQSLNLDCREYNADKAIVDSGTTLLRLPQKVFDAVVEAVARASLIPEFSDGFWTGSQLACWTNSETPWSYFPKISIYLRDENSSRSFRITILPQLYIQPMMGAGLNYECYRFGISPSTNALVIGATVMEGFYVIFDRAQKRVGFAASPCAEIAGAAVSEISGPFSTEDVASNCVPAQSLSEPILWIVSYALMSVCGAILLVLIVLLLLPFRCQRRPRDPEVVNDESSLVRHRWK
# assay-procedure: In vitro enzymatic BACE2 FRET assay
# condition-info: read-out: BACE2 Enzyme IC50
quantity: pIC50
# reply with the number alone; pIC50 is -log10 of concentration in mol/L

Illustrative cases are given below, each with its answer.
CN1C(N)=N[C@](C)(c2cc(/C=C(\F)c3ccc(Br)cn3)cc(F)c2F)CS1(=O)=O [Example 105]: 8.05
CN1C(N)=N[C@](C)(c2cc(/C=C(\F)c3cc4ccccc4cn3)ccc2F)CS1(=O)=O [Example 259]: 7.39
CC1(C)C(N)=N[C@](C)(c2cc(/C=C(\F)c3ccc(C#N)cn3)ccc2F)CS1(=O)=O [Example 113]: 8.05
CC#CCOc1cnc(/C(F)=C/c2cc(F)c(F)c([C@]3(C)CS(=O)(=O)N(C)C(N)=N3)c2)cn1 [Example 165]: 7.33
CC1(C)C(N)=N[C@](C)(c2cc(/C=C(\F)c3cnc(OCC4CC4)cn3)ccc2F)CS1(=O)=O [Example 206]: 6.86

query: Given the entry C#C[C@H](CC)Oc1cnc(/C(F)=C/c2ccc(F)c([C@]3(C)CS(=O)(=O)C(C)(C)C(N)=N3)c2)cn1 (single isomer, unassigned) [Example 178] , report its measured pIC50.
result: 6.63

---

IC50 listing for selected compounds.
# system-name: Cathepsin D (CatD) (Homo sapiens (Human), UniProt P07339)
Reply numerically in µM, unit not repeated.

Known IC50 results, listed for orientation:
C[C@]1(c2cc(/C=C(\F)c3cnc(OCC4COC4)cn3)ccc2F)N=C(N)[C@@]2(CF)CC[C@@H]1S2(=O)=O: 100
Cc1csc(COc2cnc(/C(F)=C/c3cc(F)c(F)c([C@]4(C)CS(=O)(=O)N(C)C(N)=N4)c3)cn2)n1: 25.4

Consider now this further compound.
query: State the recorded IC50 for this entry: `CN1C(N)=N[C@](C)(c2cc(/C=C(\F)c3cnc(C#N)cn3)ccc2F)C(C)(C)S1(=O)=O`
result: 178

---

# system-name: human recombinant BACE2 (Homo sapiens (Human))
# assay-procedure: In vitro enzymatic BACE2 FRET assay
# condition-info: read-out: BACE2 Enzyme IC50
quantity: pIC50
Lab note: report pIC50 as minus log10 of the concentration in molar units, number only.

C#C[C@H](C)Oc1cnc(/C(F)=C/c2ccc(F)c([C@]3(CF)CS(=O)(=O)C(C)(C)C(N)=N3)c2)cn1 [Example 195]: 6.28
CN1C(N)=N[C@](C)(c2cc(/C=C(\F)c3cnc(OCc4nccn4C)cn3)cc(F)c2F)CS1(=O)=O [Example 249]: 5.74
CCOC(=O)COc1cnc(/C(F)=C/c2cc(F)c(F)c([C@]3(C)CS(=O)(=O)N(C)C(N)=N3)c2)cn1 [Example 243]: 6.40
CN1C(N)=N[C@](C)(c2cc(/C=C(\F)c3cnc(OCc4ncco4)cn3)cc(F)c2F)CS1(=O)=O [Example 166]: 7.05
C[C@@]1(c2cc(/C=C(\F)c3ccc(C#N)cn3)ccc2F)CS(=O)(=O)C2(CCC2)C(N)=N1 [Example 103]: 7.30

query: Which measured pIC50 value corresponds to C=CCOc1cnc(/C(F)=C/c2ccc(F)c([C@@]3(C)N=C(N)[C@@]4(CF)CC[C@@H]3S4(=O)=O)c2)cn1 [Example 125] ?
result: 6.79

query: // query: CN1C(N)=N[C@](C)(c2cc(/C=C(\F)c3ccc(Br)cn3)ccc2F)CS1(=O)=O [Example 247]
result: 8.15

These data points were gathered from patent US11021493B2.
